Test system: blackgrass
Test: Test B pre/postemergence blackgrass
Format: in vivo, Alopecurus myosuroides
Details: Rate 125 g/ha, Postemergence; scale of 0 to 10 where 0 is no effect and 10 is complete control

# molecule, Blackgrass plant response rating
data = [
    ("CC(C)N(C(=O)n1oc(=O)n(-c2ccsc2)c1=O)c1ccc(F)cc1 [Compound 272]", 0),
    ("CC(C)N(C(=O)n1oc(=O)n(Cc2nnsc2Cl)c1=O)c1ccccc1 [Compound 321]", 0),
    ("Cc1cccc(C)c1-n1c(=O)on(C(=O)N(C(C)C)C2C=CCCC2)c1=O (centres unmarked) [Compound 273]", 1),
    ("CC(C)N(C(=O)n1oc(=O)n(C2CCCC2)c1=O)c1ccccc1 [Compound 283]", 6),
    ("Cc1ccccc1-n1c(=O)on(C(=O)N(c2ccc3c(c2)CCC3)C(C)C)c1=O [Compound 278]", 0),
]

###

Test system: morningglory
Assay: Test B pre/postemergence morningglory
Type: in vivo, Ipomoea hederacea
Conditions: Rate 62 g/ha, Postemergence; scale 0 to 10 (0 no effect, 10 complete control)
Everything with Morningglory plant response rating lower than 2 is No; everything else, including exactly 2, is Yes.

# molecule, qualitative-label
measured = [
    ("CC(C)N(C(=O)n1oc(=O)n(C(C)C(=O)N(C)C)c1=O)c1ccc(F)cc1 (stereo not shown)", "Yes"),
    ("Cc1ccccc1-n1c(=O)on(C(=O)N(c2ccc3c(c2)CCC3)C(C)C)c1=O", "Yes"),
    ("CC(C)C(=O)Cn1c(=O)on(C(=O)N(c2ccccc2)C(C)C)c1=O", "Yes"),
    ("COCn1c(=O)on(C(=O)N(c2ccc(F)cc2)C(C)C)c1=O", "No"),
    ("CCN(C(=O)n1oc(=O)n(Cc2ccco2)c1=O)C1CCCCC1", "No"),
    ("CC(C)N(C(=O)n1oc(=O)n(CC2=NCCO2)c1=O)c1ccccc1", "No"),
]

###

Tested on: purple nutsedge
Experiment: Test B pre/postemergence purple nutsedge
Assay type: in vivo, Cyperus rotundus
Conditions: Preemergence, Rate 500 g/ha; scale 0 to 10 (0 no effect, 10 complete control)
Protocol: […] At the same time, these crop and weed species were also treated with postemergence applications of test chemicals formulated in the same manner. […] Treated plants and controls were maintained in a greenhouse for twelve to sixteen days, after which all species were compared to controls and visually evaluated. […]
List of Nutsedge plant response rating values.
quantity-name: Nutsedge plant response rating

# compound, study-target, data-value
measured = [
    ("COc1ccccc1Cn1c(=O)on(C(=O)N(c2ccccc2)C(C)C)c1=O", "purple nutsedge", 0),
    ("CC(C)N(C(=O)n1oc(=O)n(-c2cnn(C)c2)c1=O)c1ccccc1", "purple nutsedge", 0),
    ("CC1CCCCC1n1c(=O)on(C(=O)N(c2ccccc2)C(C)C)c1=O (stereo not drawn)", "purple nutsedge", 0),
    ("Cc1nsc(C)c1-n1c(=O)on(C(=O)N(c2ccc(Cl)cc2)C(C)C)c1=O", "purple nutsedge", 0),
    ("CC(C)N(C(=O)n1oc(=O)n(C)c1=O)c1ccc(F)cc1", "purple nutsedge", 7),
    ("CC(C)N(C(=O)n1oc(=O)n([C@@H](C)c2ccccc2)c1=O)c1ccccc1", "purple nutsedge", 0),
]

###

Test system: sugar beet
Assay: Test B pre/postemergence sugar beet
Type: in vivo, Beta vulgaris
Details: Preemergence, Rate 125 g/ha; scale of 0 to 10 where 0 is no effect and 10 is complete control
quantity-name: Sugarbeets plant response rating

# compound, study-target, data-value
rows = [
    ("COCCn1c(=O)on(C(=O)N(c2ccccc2)C(C)C)c1=O [Compound 631]", "sugar beet", 3),
    ("COC(=O)C(C)n1c(=O)on(C(=O)N(c2ccc(Cl)cc2)C(C)C)c1=O (stereo not shown) [Compound 623]", "sugar beet", 0),
    ("CC(C)N(C(=O)n1oc(=O)n(CCF)c1=O)c1ccc(Cl)cc1 [Compound 668]", "sugar beet", 6),
    ("CC(C)N(C(=O)n1oc(=O)n(CC2=NOCCC2)c1=O)c1ccc(F)cc1F [Compound 602]", "sugar beet", 2),
    ("CCOP(=O)(OCC)C(C)n1c(=O)on(C(=O)N(c2ccc(F)cc2)C(C)C)c1=O (stereo not shown) [Compound 617]", "sugar beet", 0),
    ("CCC(C)n1c(=O)on(C(=O)N(c2ccccc2)C(C)C)c1=O (stereo not shown) [Compound 612]", "sugar beet", 5),
    ("CCCCn1c(=O)on(C(=O)N(c2ccc(F)cc2F)C(C)C)c1=O [Compound 635]", "sugar beet", 5),
]

###

System: morningglory
Experiment: Test B pre/postemergence morningglory
Format: in vivo, Ipomoea hederacea
Conditions: Postemergence, Rate 500 g/ha; scale of 0 to 10 where 0 is no effect and 10 is complete control

# molecule, Plant response rating, Morningglory
data = [
    ("CC(C)N(C(=O)n1oc(=O)n(CC(=O)C2CC2)c1=O)c1ccc(Cl)cc1", 7),
    ("CCC(C)n1c(=O)on(C(=O)N(c2ccccc2)C(C)C)c1=O (centres unmarked)", 10),
    ("Cc1noc(C)c1Cn1c(=O)on(C(=O)N(c2ccccc2)C(C)C)c1=O", 10),
    ("COCCn1c(=O)on(C(=O)N(c2ccccc2)C(C)C)c1=O", 10),
    ("CC(C)N(C(=O)n1oc(=O)n(CCC2OCCO2)c1=O)c1ccccc1", 10),
]

###

Tested on: sugar beet
Assay: Test B pre/postemergence sugar beet
Assay type: in vivo, Beta vulgaris
Details: Preemergence, Rate 500 g/ha; scale of 0 to 10 where 0 is no effect and 10 is complete control

# compound, Sugarbeets plant response rating
records = [
    ("CCN(C(=O)n1oc(=O)n(Cc2ccco2)c1=O)C1CCCCC1 [Compound 312]", 0),
    ("Cc1noc(C)c1Cn1c(=O)on(C(=O)N(c2ccccc2)C(C)C)c1=O [Compound 569]", 3),
    ("CC(C)N(C(=O)n1oc(=O)n(C2CCCO2)c1=O)c1ccc(F)cc1 (stereo not drawn) [Compound 345]", 0),
    ("CC(C)N(C(=O)n1oc(=O)n(CCCCF)c1=O)c1ccc(Cl)cc1 [Compound 551]", 9),
    ("Cc1cccc(C(C)(C)C)c1-n1c(=O)on(C(=O)N(c2ccc(F)cc2)C(C)C)c1=O [Compound 359]", 0),
    ("CC(C)N(C(=O)n1oc(=O)n(CC2=NCCO2)c1=O)c1ccccc1 [Compound 495]", 0),
]

###

Test system: bedstraw
Assay: Test B pre/postemergence bedstraw
Assay type: in vivo, Galium aparine
Settings: Preemergence, Rate 500 g/ha; scale 0 to 10 (0 no effect, 10 complete control)

# compound, Bedstraw plant response rating
rows = [
    ("CC(C)N(C(=O)n1oc(=O)n(C2CCCCC2)c1=O)c1ccccc1 [Compound 112]", 0),
    ("CC(C)N(C(=O)n1oc(=O)n([C@@H](C)c2ccccc2)c1=O)c1ccccc1 [Compound 168]", 0),
    ("COc1ccccc1Cn1c(=O)on(C(=O)N(c2ccccc2)C(C)C)c1=O [Compound 104]", 0),
    ("Cc1nsc(C)c1-n1c(=O)on(C(=O)N(c2ccc(Cl)cc2)C(C)C)c1=O [Compound 159]", 0),
    ("CC(C)N(C(=O)n1oc(=O)n([C@@H](C)c2ccccc2)c1=O)c1ccc(Cl)cc1 [Compound 174]", 3),
    ("CC(C)N(C(=O)n1oc(=O)n([C@@H](C)c2ccccc2)c1=O)c1ccc(F)cc1 [Compound 167]", 5),
]

###

List of Blackgrass plant response rating values.
Test system: blackgrass
Test: Test B pre/postemergence blackgrass
Format: in vivo, Alopecurus myosuroides
Settings: Postemergence, Rate 250 g/ha; scale of 0 to 10, 0 is no effect, 10 is complete control

# compound, study-target, Blackgrass plant response rating
rows = [
    ("CC(C)N(C(=O)n1oc(=O)n(CCF)c1=O)c1ccc(F)cc1F", "blackgrass", 5),
    ("CCC(C)n1c(=O)on(C(=O)N(c2ccccc2)C(C)C)c1=O (stereo not shown)", "blackgrass", 9),
    ("COC(=O)C(C)n1c(=O)on(C(=O)N(c2ccc(F)cc2)C(C)C)c1=O (stereo not shown)", "blackgrass", 0),
    ("CC(C)N(C(=O)n1oc(=O)n(CC(=O)C(F)(F)F)c1=O)c1ccc(F)cc1F", "blackgrass", 0),
    ("CCCCn1c(=O)on(C(=O)N(c2ccc(F)cc2F)C(C)C)c1=O", "blackgrass", 7),
    ("COC(=O)C(C)n1c(=O)on(C(=O)N(c2ccc(Cl)cc2)C(C)C)c1=O (stereo not shown)", "blackgrass", 4),
    ("COC(C)n1c(=O)on(C(=O)N(c2ccc(Cl)cc2)C(C)C)c1=O (stereo not shown)", "blackgrass", 0),
]
